Where these numbers come from: ChEMBL document CHEMBL2434863

# Tested on: Enterococcus faecalis
# ASSAY TEXT: Antibacterial activity against Enterococcus faecalis SR1004 clinical isolate assessed as growth inhibition by broth microdilution method
# Format: functional
Rule: MIC below 2 µg/mL gives label 1. Equal to or above 2 µg/mL gives label 0.

// known answers, use as guide
{"columns": ["SMILES", "CLASSIFICATION"],
 "data": [
  ["CNC(=O)N1CCN(c2c(F)cc(N3C[C@H](CNC(=S)OC)OC3=O)cc2F)CCO1", "label 1"],
  ["COC(=S)NC[C@H]1CN(c2cc(F)c(N3CCn4c(=O)c5cccnc5n4CC3)c(F)c2)C(=O)O1", "label 1"],
  ["NC(=O)N1CCN(c2c(F)cc(N3C[C@H](Cn4ccnn4)OC3=O)cc2F)CCO1", "label 0"]
]}

Please turn your attention to the following entry.
Report whether reported MIC is lower than 2 µg/mL (strictly) for COC(=S)NC[C@H]1CN(c2ccc(N3CCNN(C=O)CC3)c(F)c2)C(=O)O1
label 1
